Source of measurements: patent US10450292B2

Test system: Escherichia coli D21f2tolC
Procedure Text: microbe, parasite or virus in culture
Applied Conditions: 16 h, read-out: MIC E. coli D21f2tolC, Mueller-Hinton II agar, 16 h at 37° C.
Parameter Measured: MIC (µg/mL)
Write it as a number; the unit µg/mL goes unstated.

Q: Tell me measured MIC for O=C(/C=C/c1ccc(Oc2ccc(F)cc2)cc1)c1c(O)cc(O)cc1O please.
A: 5.9

Q: Tell me measured MIC for Cc1cc(Oc2ccccc2)ccc1/C=C/C(=O)c1c(O)cc(O)cc1O please.
A: 1.4

Q: Tell me measured MIC for CCCC1=C(O)C(CCC)(CCC)C(=O)C(C(=O)C2CC2c2ccc(C(F)(F)F)cc2)=C1O (centres unmarked) please.
A: 0.66

Q: Tell me measured MIC for CCC1=C(O)C(CC)(CC)C(=O)C(C(=O)CCc2ccc(Oc3ccc(F)cc3)cc2C)=C1O please.
A: 0.9

Q: Tell me measured MIC for O=C(/C=C/c1ccc(OCc2ccccc2)cc1)c1c(O)cc(O)cc1O please.
A: 16

Q: Tell me measured MIC for Cc1cc(Oc2ccc(F)cc2)ccc1/C=C/C(=O)c1c(O)cc(O)cc1O please.
A: 2.4

Q: Tell me measured MIC for CCC1=C(O)C(CC)(CC)C(=O)C(C(=O)CCc2ccc(Oc3ccc(F)cc3)cc2C(F)(F)F)=C1O please.
A: 1.2

Q: Tell me measured MIC for Cc1ccc(CCC(=O)c2c(O)cc(O)cc2O)s1 please.
A: 24
